System: HIV
Test: Anti-HIV activity in MT4 cells (method of Averett, J. Virol. Methods 1989)
Assay type: cell-based
Settings: read-out: Activity Range (IC50)
pIC50: −log10 of the molar value.
Assay Readout: pIC50

Compound	Experimental Result
CC(C)Cc1c(OC#CC2CC2)c2cc(F)ccc2[nH]c1=O [Example 47]	7.00 to 8.30
